- assay system: T1, Ala mutant SEQ ID NO: 33 (human)
- T1 sequence (peptide): EENMDDAWMQDEMEIGY
- protocol summary: ELISA, peptide on plate (10 ug/mL)
absorbance 490 nm/630 nm overview

binder: G9 (antibody, IgG1, V domains shown) VH: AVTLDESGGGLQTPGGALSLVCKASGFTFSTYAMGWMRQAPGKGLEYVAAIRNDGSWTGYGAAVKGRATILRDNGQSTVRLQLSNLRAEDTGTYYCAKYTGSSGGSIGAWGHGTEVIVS VL: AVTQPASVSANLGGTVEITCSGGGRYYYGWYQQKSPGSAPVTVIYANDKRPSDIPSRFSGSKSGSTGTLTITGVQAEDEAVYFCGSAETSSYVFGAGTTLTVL
absorbance 490 nm/630 nm [OD]: 1.98
--
binder: H7 (antibody, IgG1, V domains shown) VH: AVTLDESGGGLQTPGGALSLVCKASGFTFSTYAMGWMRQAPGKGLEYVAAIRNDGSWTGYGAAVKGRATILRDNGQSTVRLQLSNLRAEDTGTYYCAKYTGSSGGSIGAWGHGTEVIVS VL: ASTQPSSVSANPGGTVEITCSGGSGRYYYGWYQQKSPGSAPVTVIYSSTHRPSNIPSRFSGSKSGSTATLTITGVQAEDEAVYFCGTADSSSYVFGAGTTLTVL
absorbance 490 nm/630 nm [OD]: 1.87
--
binder: G6 (antibody, IgG1, V domains shown) VH: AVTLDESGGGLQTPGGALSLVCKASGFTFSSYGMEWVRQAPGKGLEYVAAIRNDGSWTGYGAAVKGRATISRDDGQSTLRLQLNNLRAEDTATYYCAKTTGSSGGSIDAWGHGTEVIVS VL: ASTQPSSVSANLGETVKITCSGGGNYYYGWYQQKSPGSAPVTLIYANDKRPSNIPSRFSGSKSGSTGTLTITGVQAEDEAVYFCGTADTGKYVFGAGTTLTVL
absorbance 490 nm/630 nm [OD]: 1.98
